target: T1, Fusion protein of extracellular domain of human TIGIT and human IgG1 Fc fragment (human TIGIT ECD-hFc) (human); assay: blocking of TIGIT ECD-hFc binding to CHO-K1 CD155 cells
T1 construct: The entry includes the signal peptide (limits not recoverable) and the human IgG1 Fc
T1 sequence (chain, as listed by the source limits assumed): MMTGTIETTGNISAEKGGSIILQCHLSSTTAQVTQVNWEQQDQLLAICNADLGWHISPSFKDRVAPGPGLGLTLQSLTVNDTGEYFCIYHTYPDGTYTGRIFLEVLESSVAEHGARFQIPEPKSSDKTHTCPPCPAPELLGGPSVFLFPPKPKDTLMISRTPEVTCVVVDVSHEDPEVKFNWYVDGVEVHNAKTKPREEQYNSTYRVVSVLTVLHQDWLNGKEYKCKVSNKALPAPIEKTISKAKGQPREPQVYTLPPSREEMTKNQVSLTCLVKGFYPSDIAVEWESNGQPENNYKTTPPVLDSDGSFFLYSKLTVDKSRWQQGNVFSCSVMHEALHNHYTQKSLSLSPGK
measurement type: IC50 (pM)
Quick note: give the figure in pM, leave out the unit.

{"binder": "TIGIT-002-H1L3 (antibody, V domains shown, Humanized anti-TIGIT antibody) VH: EVQLQESGPGLVKPSETLSLTCAVSGYSITSDSWNWIRQPPGKGLEWIGYISYSGNTYYNPSLKSRVTISRDTSKNQFSLKLSSVTAADTAVYYCARLDFSNYGGAVDYWGQGTTVTVSS VL: DIVMTQSPDSLAVSLGERATINCKASQNVRTAVAWYQQKPGQSPKLMIYSASYRYTGVPDRFSGSGSGTDFTLTISSLQAEDVAVYYCQQYYTTPWTFGGGTKVEIK", "data value": 395}

Which IC50 is listed for TIGIT-006-H1L3 (antibody, V domains shown, Humanized anti-TIGIT antibody) VH: EVQLQESGPGLVKPSETLSLTCAVSGYSITSDYWNWIRQPPGKGLEWIGYISYSGRTYYNPSLKSRVTISRDTSKNQFSLKLSSVTAADTAVYYCARGDYSNYGGAMYDWGQGTTVTVSS VL: DIVMTQSPDSLAVSLGERATINCRASQGVSTTIAWYQQKPGQSPKLLIYSASYRYTGVPRFSGSGSGTDFTLTISSLQAEDVAVYYCQQYYSSPFTFGGGTKVEIK ?
1230

Would you kindly repeat that for TIGIT-070-H1L2 (antibody, V domains shown, Humanized anti-TIGIT antibody) VH: EVQLVQSGAEVKKPGASVKVSCKASGYTFTNYYMHWVRQAPGQRLEWMGRIDPDSGGSKYNEKFKSRVTITVDKSASTAYMELSSLRSEDTAVYYCAREGHYGFYSDYWGQGTTVTVSS VL: DIQMTQSPSSLSASVGDRVTITCRVSENIYSYLAWYQQKPGKSPKLLVYNAKTLAEGVPSRFSGSGSGTDFTLTISSLQPEDFATYYCQHHYGNPLTFGPGTKVDIK ?
421

Would you kindly repeat that for TIGIT-070-H3L3 (antibody, V domains shown, Humanized anti-TIGIT antibody) VH: EVQLVQSGAEVKKPGASVKVSCKASGYTFTNYYMHWVRQAPGQGLEWMGRIDPDSGGSKYNEKFKSRVTITVDKLSSTAYMELSSLRSEDTAVYYCAREGHYGFYSDYWGQGTTVTVSS VL: DIVMTQSPDSLAVSLGERATINCRVSENIYSYLAWYQQKPGQSPKLLVYNAKTLAEGVPDRFSGSGSGTDFTLTISSLQAEDVAVYYCQHHYGNPLTFGPGTKVDIK ?
417

Would you kindly repeat that for TIGIT-070-H1L3 (antibody, V domains shown, Humanized anti-TIGIT antibody) VH: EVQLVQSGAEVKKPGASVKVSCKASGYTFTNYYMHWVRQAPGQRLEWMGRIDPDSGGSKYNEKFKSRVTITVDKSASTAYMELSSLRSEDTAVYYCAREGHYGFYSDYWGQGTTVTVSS VL: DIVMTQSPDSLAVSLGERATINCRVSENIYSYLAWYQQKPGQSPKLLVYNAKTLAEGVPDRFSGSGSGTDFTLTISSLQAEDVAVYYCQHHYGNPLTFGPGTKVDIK ?
445
